- Tested on: Homo sapiens
- experiment-description: Inhibition of LPS-induced NF-kappaB (unknown origin) transactivation expressed in human SW480 cells at 10 uM administered 1 hr after LPS stimulation measured after 6 hrs by luciferase reporter gene assay relative to control
- Format: cell-based
Kind request: treat 20% as inclusive, so inhibition at 20% or higher is Criterion met, anything lower is Criterion not met.

Below are worked cases with known answers.
compound	test-system	group-label
CC1(C)C=Cc2c(ccc3c(=O)c(Oc4ccc(O)cc4O)coc23)O1	Homo sapiens	Criterion not met
CC(C)=CCc1cc(/C=C/C(=O)c2ccc3c(c2O)C=CC(C)(C)O3)ccc1O	Homo sapiens	Criterion not met
CC1(C)C=Cc2c(ccc3c2OC[C@H]2c4ccc(O)cc4O[C@@H]32)O1	Homo sapiens	Criterion not met
CC1(C)C=Cc2c(ccc3cc(-c4ccc(O)cc4O)oc23)O1	Homo sapiens	Criterion not met
CC1(C)C=Cc2c(ccc3c2OCC(c2ccc(O)cc2O)=C3)O1	Homo sapiens	Criterion not met
COc1ccc([C@@H]2COc3c(ccc4c3C=CC(C)(C)O4)C2)c(O)c1O	Homo sapiens	Criterion met

Problem: Quick check, inhibition >= 20%? CC1(C)C=Cc2c(ccc3c2OCc2c-3oc3cc(O)ccc23)O1
Result: Criterion not met

Problem: Could you please find out whether CC1(C)C=Cc2cc(/C=C/C(=O)c3ccc(O)cc3O)ccc2O1 has inhibition that meets 20% or exceeds it?
Result: Criterion met

Problem: # check: inhibition of CC(C)=CCc1cc([C@H]2Oc3c(ccc(O)c3CC=C(C)C)C(=O)C2O)ccc1O (stereo not given in full) is greater than or equal to 20%
Result: Criterion met

Problem: Hi, just wondering whether CC1(C)C=Cc2c(cc(O)c3c(=O)c(-c4ccc(O)cc4O)coc23)O1 shows inhibition of 20% or higher.
Result: Criterion not met

Problem: Does inhibition meet or surpass 20% for CC(C)=CCc1c(O)ccc2c1O[C@H](c1ccc3c(c1)C=CC(C)(C)O3)CC2=O ?
Result: Criterion met

Problem: Tell me whether inhibition is at least 20% here: COc1ccc(C2(O)COc3c(ccc(O)c3CC=C(C)C)C2=O)c(O)c1 (stereo not given)
Result: Criterion not met

Problem: Does CC1(C)C=Cc2c(O)ccc(C3=Cc4ccc(O)cc4OC3)c2O1 have a reported inhibition of at least 20%?
Result: Criterion met

====

- System: HepG2
- experiment-description: Antiproliferative activity against human HepG2 cells after 24 hrs by MTS assay
- Assay type: functional, cell-based
- protocol-conditions: HepG2, 24 h
pIC50: −log10 of the molar value.
test-readout: pIC50

# pIC50 of CC(C)=CCc1cc2c(cc1O)OCC(c1ccc(O)c3c1OC(C)(C)C=C3)=C2 = 5.18 to 5.34

====

- test-system: Tyrosinase (Homo sapiens);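 also: tyrosinase of unspecified origin acting on L-tyrosine, compound preincubated with enzyme for 15 min before adding substrate, inhibition expressed versus control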
- Sequence (whole entry): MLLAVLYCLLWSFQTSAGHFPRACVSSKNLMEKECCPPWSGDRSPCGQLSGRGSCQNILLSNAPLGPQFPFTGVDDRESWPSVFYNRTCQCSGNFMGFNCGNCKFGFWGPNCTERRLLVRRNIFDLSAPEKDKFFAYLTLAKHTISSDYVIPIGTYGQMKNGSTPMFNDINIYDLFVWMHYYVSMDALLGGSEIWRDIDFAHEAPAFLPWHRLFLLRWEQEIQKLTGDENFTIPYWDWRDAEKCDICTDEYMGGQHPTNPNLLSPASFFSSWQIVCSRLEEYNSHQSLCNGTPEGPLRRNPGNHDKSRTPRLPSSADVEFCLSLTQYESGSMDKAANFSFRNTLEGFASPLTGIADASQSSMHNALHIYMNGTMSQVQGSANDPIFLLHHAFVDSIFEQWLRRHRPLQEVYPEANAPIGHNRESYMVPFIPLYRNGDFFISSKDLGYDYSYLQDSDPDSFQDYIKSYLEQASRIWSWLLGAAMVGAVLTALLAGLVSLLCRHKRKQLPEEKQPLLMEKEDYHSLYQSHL
- protocol-conditions: at 10 µM
- Description: Inhibition of tyrosinase (unknown origin) using L-tyrosine as substrate at 10 uM preincubated for 15 mins followed by substrate addition relative to control
Given measured inhibition, output Y if it is greater than or equal to 3% and N if not.

compound	group-label
CC(C)=CCc1cc([C@H]2Oc3c(ccc4c3C=CC(C)(C)O4)C(=O)[C@@H]2O)ccc1O	Y
O=C(/C=C/c1ccc(O)cc1)c1ccc(O)cc1O [ISOLIQUIRITIGENIN]	Y
CC(C)=CCc1c(O)ccc(C(=O)/C=C/c2ccc(O)cc2)c1O [ISOBAVACHALCONE]	Y
CC1(C)C=Cc2cc([C@@H]3CC(=O)c4ccc5c(c4O3)C=CC(C)(C)O5)ccc2O1 [XAMBIOONA]	N
CC(C)=CCc1c(O)ccc(C(=O)/C=C/c2cc(O)c3c(c2)C=CC(C)(C)O3)c1O	N
CC(C)=CCc1cc([C@@H]2CC(=O)c3ccc4c(c3O2)C=CC(C)(C)O4)ccc1O [SHINFLAVANONE]	Y

Problem: Is inhibition at least 3%? Consider CC(C)=CCc1cc(C[C@@H](O)C(=O)c2cc(CC=C(C)C)c(O)cc2O)ccc1O
Result: Y

Problem: In plain terms: is recorded inhibition at least 3% for CC1(C)C=Cc2c(ccc3cc(-c4ccc(O)cc4O)c(=O)oc23)O1 [KANZONOL W] ?
Result: Y

Origin of measurements: ChEMBL document CHEMBL4052601
